# Assay text: Genotoxicity in Salmonella typhimurium TA1535 harboring pSK1002 assessed as umu gene induction at 0.125 mg/ml in absence of Sprague-Dawley rat liver S9 fraction after by SOS/umu assay relative to control
# Assay type: toxicity, organism-based
# Measurement setup: salmonella enterica subsp. enterica serovar typhimurium, read-out: FC
The following compounds are listed with their measured fold induction at 0.125 mg/ml values.

Compound	fold induction at 0.125 mg/ml
N#Cc1ccc(N2CCC(NCCC(O)c3ccc(F)c4ccccc34)CC2)c(Cl)c1 (stereo not given)	0.1
Nc1ccc(N2CCC(NCCC(O)c3ccc(F)c4ccccc34)CC2)c(C(F)(F)F)c1 (stereo not given)	0.4
N#Cc1ccc(N2CCC(NCCC(O)c3ccc(F)c4ccccc34)CC2)c(C(F)(F)F)c1 (stereo in doubt; 72)	0.2
OC(CCN1CCN(c2ccc(F)cc2)CC1)c1ccc(F)c2ccccc12 (stereo not given)	0.7
COc1ccccc1N1CCN(CCC(O)c2ccc(F)c3ccccc23)CC1 (stereo not given)	0.9

----------
# Test system: Plasmodium falciparum
# Assay text: Binding affinity to Plasmodium falciparum GRP94 nucleotide binding domain at 0.5 mM by SYPRO orange dye based DSF analysis
Activity calls are given as the source filed them. The calls are words filed in the database; no cut-off is given here.
Classes used: label 1 = active, label 0 = inactive

Compound	Answer label
OC(CN1CCN(Cc2ccccc2)CC1)Cn1c2ccc(Cl)cc2c2cc(Cl)ccc21 (centres undefined)	label 0
Nc1ncnc2c1ncn2[C@@H]1O[C@H](COP(=O)(O)OP(=O)(O)O)[C@@H](O)[C@H]1O	label 1
CC(C)NCC(O)Cn1c2ccc(Cl)cc2c2cc(Cl)ccc21 (centres undefined)	label 0
O=[N+]([O-])c1ccc(N2CCC(NCCC(O)c3ccc(F)cc3)CC2)c(C(F)(F)F)c1 (centres undefined)	label 0

----------
# Assay text: Genotoxicity in Salmonella typhimurium TA1535 harboring pSK1002 assessed as survival at 0.008 mg/ml in absence of Sprague-Dawley rat liver S9 fraction after by SOS/umu assay relative to control
# Format: toxicity, organism-based
# Measurement setup: salmonella enterica subsp. enterica serovar typhimurium, read-out: Survival
The following molecules are listed with their measured viability at 0.008 mg/ml values.
Readout label: viability at 0.008 mg/ml (%)

Molecule	Numeric result
COC(=O)c1ccc(C(O)CCN2CC=C(c3ccc(F)cc3)CC2)cc1 (stereo unspecified)	97.5
COc1ccccc1N1CCN(CCC(O)c2ccc(F)cc2)CC1 (stereo in doubt; 66)	114
OC(CCN1CCN(C(c2ccccc2)c2ccccc2)CC1)c1ccc(Br)cc1 (stereo unspecified)	116
O=[N+]([O-])c1ccccc1N1CCN(CCC(O)c2ccc(F)c3ccccc23)CC1 (stereo unspecified)	87.9
N#Cc1ccc(N2CCC(NCCC(O)c3ccc(F)c4ccccc34)CC2)c(C(F)(F)F)c1 (stereo in doubt; 72)	32.9
OC(CCN1CCN(c2ccc(F)cc2)CC1)c1ccc(F)c2ccccc12 (stereo unspecified)	122
COc1ccccc1C1=CCN(CCC(O)c2ccc(F)cc2)CC1 (stereo unspecified)	111
N#Cc1ccc(N2CCC(NCCC(O)c3ccc(F)c4ccccc34)CC2)c(Cl)c1 (stereo unspecified)	33.7
OC(CCN1CCN(C(c2ccccc2)c2ccccc2)CC1)c1ccc(Cl)cc1 (stereo unspecified)	125
OC(CCN1CCN(C(c2ccccc2)c2ccccc2)CC1)c1ccc(F)c2ccccc12 (stereo unspecified)	80.6
OC(CCN1CC=C(c2ccc(F)cc2)CC1)c1ccc2c(c1)OCO2 (stereo unspecified)	128
OC(CCN1CCN(c2ccccc2C(F)(F)F)CC1)c1ccc(F)cc1 (stereo unspecified)	98.3
N#Cc1ccc(N2CCC(NCCC(O)c3ccc(F)c4ccccc34)CC2)c(Br)c1 (stereo unspecified)	18.9
Oc1ccc(C(O)CCN2CC=C(c3ccc(F)cc3)CC2)cc1 (stereo unspecified)	98.3
N#Cc1ccc(C(O)CCN2CC=C(c3ccc(F)cc3)CC2)cc1 (stereo unspecified)	89.4
COc1ccccc1N1CCN(CCC(O)c2ccc(F)c3ccccc23)CC1 (stereo unspecified)	67.1
COc1ccccc1C1=CCN(CCC(O)c2ccc(F)c3ccccc23)CC1 (stereo unspecified)	76.4
OC(CCN1CCN(C(c2ccccc2)c2ccccc2)CC1)c1ccc(F)c(F)c1 (stereo unspecified)	105
O=[N+]([O-])c1ccc(N2CCN(CCC(O)c3ccc(F)c4ccccc34)CC2)cc1 (stereo unspecified)	84.2
Nc1ccc(N2CCC(NCCC(O)c3ccc(F)c4ccccc34)CC2)c(C(F)(F)F)c1 (stereo unspecified)	27.7
OC(CCN1CCN(c2ccccc2C(F)(F)F)CC1)c1ccc(F)c2ccccc12 (stereo in doubt; 55)	68.7
